test system: Saccharomyces cerevisiae; assay: protein stability index of tFT-peptide fusion (C-terminal peptide) (PSI (0-1 scale)); higher = more stable (slower turnover); details: genetic background: wild type; temperature: 30 C
// label = 1 if protein stability index is not less than 0.7, otherwise -1

macromolecule_sequence=PQRTPPRPNKPP test_system="Saccharomyces cerevisiae" assigned_label=-1
macromolecule_sequence=VPLSPVSSGAPD test_system="Saccharomyces cerevisiae" assigned_label=-1
macromolecule_sequence=VGWCTGWFVGLV test_system="Saccharomyces cerevisiae" assigned_label=-1
macromolecule_sequence=GGGGGGGGCGVI test_system="Saccharomyces cerevisiae" assigned_label=1
macromolecule_sequence=ELRSYAGMSGFN test_system="Saccharomyces cerevisiae" assigned_label=1
macromolecule_sequence=TASRSSRADERA test_system="Saccharomyces cerevisiae" assigned_label=-1
macromolecule_sequence=GGGGRGVGAGGG test_system="Saccharomyces cerevisiae" assigned_label=-1
macromolecule_sequence=SWTAYSYQWVFF test_system="Saccharomyces cerevisiae" assigned_label=-1
macromolecule_sequence=RLFCLRSVSLVS test_system="Saccharomyces cerevisiae" assigned_label=-1
macromolecule_sequence=VIRGVVPVVRSV test_system="Saccharomyces cerevisiae" assigned_label=-1
macromolecule_sequence=VFGWAGVGGDCG test_system="Saccharomyces cerevisiae" assigned_label=-1
macromolecule_sequence=NKRKDEIKPRNV test_system="Saccharomyces cerevisiae" assigned_label=-1
macromolecule_sequence=GTWSVYSEKFVG test_system="Saccharomyces cerevisiae" assigned_label=-1
macromolecule_sequence=LRLPPPLCPLRS test_system="Saccharomyces cerevisiae" assigned_label=-1
macromolecule_sequence=TLFQGHQLFKSR test_system="Saccharomyces cerevisiae" assigned_label=1
macromolecule_sequence=VSAFLPLFLLTP test_system="Saccharomyces cerevisiae" assigned_label=-1
macromolecule_sequence=VWCAFNLLFARQ test_system="Saccharomyces cerevisiae" assigned_label=-1
macromolecule_sequence=VFIVARGLSLIV test_system="Saccharomyces cerevisiae" assigned_label=-1
macromolecule_sequence=CSLRGLFLVVSV test_system="Saccharomyces cerevisiae" assigned_label=-1
macromolecule_sequence=SSHHYSCPLVDT test_system="Saccharomyces cerevisiae" assigned_label=-1
macromolecule_sequence=PSAASIFLPFPL test_system="Saccharomyces cerevisiae" assigned_label=1
macromolecule_sequence=SDVAGRCFFVVI test_system="Saccharomyces cerevisiae" assigned_label=-1
macromolecule_sequence=PSPPPPTVPHPP test_system="Saccharomyces cerevisiae" assigned_label=-1
macromolecule_sequence=EKTKRGLIQRVV test_system="Saccharomyces cerevisiae" assigned_label=-1
macromolecule_sequence=TSPLPTLLNDPP test_system="Saccharomyces cerevisiae" assigned_label=-1
macromolecule_sequence=RHPLPHNLSPYP test_system="Saccharomyces cerevisiae" assigned_label=1

----------
tested on: Saccharomyces cerevisiae; experiment: protein stability index of tFT-peptide fusion (C-terminal peptide) (PSI (0-1 scale)); higher = more stable (slower turnover); details: genetic background: wild type; temperature: 30 C
readout.label: protein stability index

macromolecule_sequence=LGKAVSDMDETH readout_label="protein stability index" measurement=0.687
macromolecule_sequence=SPPAPACTSYSL readout_label="protein stability index" measurement=0.702
macromolecule_sequence=ARRPHSPLCTTR readout_label="protein stability index" measurement=0.71
macromolecule_sequence=PLPPSPLPRPCP readout_label="protein stability index" measurement=0.761
macromolecule_sequence=RHGTRHKLLGTL readout_label="protein stability index" measurement=0.659
macromolecule_sequence=MRRTFQHQGRAN readout_label="protein stability index" measurement=0.676
macromolecule_sequence=GPGGPGGGWPLQ readout_label="protein stability index" measurement=0.687
macromolecule_sequence=GGRQTAVSGLLL readout_label="protein stability index" measurement=0.685
macromolecule_sequence=VYRLYPLSPLLY readout_label="protein stability index" measurement=0.679
macromolecule_sequence=CSVCMSSSRLFS readout_label="protein stability index" measurement=0.733
macromolecule_sequence=QGCAWWGGGAGG readout_label="protein stability index" measurement=0.684
macromolecule_sequence=LPRSAPLHFPAC readout_label="protein stability index" measurement=0.688
macromolecule_sequence=EEYFFVNLFFAS readout_label="protein stability index" measurement=0.752
macromolecule_sequence=RPPPRSPPLPRL readout_label="protein stability index" measurement=0.806

----------
test system: Saccharomyces cerevisiae; assay: protein stability index of tFT-peptide fusion (C-terminal peptide) (PSI (0-1 scale)); higher = more stable (slower turnover); details: genetic background: wild type; temperature: 30 C;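 further: PSI is a weighted mean of sequencing reads over stability bins, variants kept only with over 10 reads, mCherry proximal and sfGFP distal, peptide attached via GGGS linker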
Catalogue of protein stability index values
readout.label: protein stability index

macromolecule_sequence=RWGGSSPGRSFA test_system="Saccharomyces cerevisiae" measurement=0.766
macromolecule_sequence=EAQWRGVRHHSR test_system="Saccharomyces cerevisiae" measurement=0.641
macromolecule_sequence=MPIKGRHSRSLK test_system="Saccharomyces cerevisiae" measurement=0.66
macromolecule_sequence=AFNPLPPFPLGF test_system="Saccharomyces cerevisiae" measurement=0.706
macromolecule_sequence=ILSPLRHPEPTR test_system="Saccharomyces cerevisiae" measurement=0.706
macromolecule_sequence=PPPPLPPIRPYP test_system="Saccharomyces cerevisiae" measurement=0.719
macromolecule_sequence=GERKRQQRKREE test_system="Saccharomyces cerevisiae" measurement=0.707
macromolecule_sequence=PTVPYRLVLSTV test_system="Saccharomyces cerevisiae" measurement=0.511
macromolecule_sequence=PRLPPPPHPSRP test_system="Saccharomyces cerevisiae" measurement=0.698
macromolecule_sequence=SRKIRTTLQESK test_system="Saccharomyces cerevisiae" measurement=0.722
macromolecule_sequence=LARTSVACEGLG test_system="Saccharomyces cerevisiae" measurement=0.703
macromolecule_sequence=CLFFFFFHLPIF test_system="Saccharomyces cerevisiae" measurement=0.472
macromolecule_sequence=ALLPLPPSPSLL test_system="Saccharomyces cerevisiae" measurement=0.719
macromolecule_sequence=NKSPWYYILQPM test_system="Saccharomyces cerevisiae" measurement=0.738
macromolecule_sequence=SVGKRRGVGVWN test_system="Saccharomyces cerevisiae" measurement=0.701
macromolecule_sequence=EVIRFMEKLPFR test_system="Saccharomyces cerevisiae" measurement=0.589
macromolecule_sequence=RTFKYERNLEVY test_system="Saccharomyces cerevisiae" measurement=0.596
macromolecule_sequence=SFFCSKCPLLCP test_system="Saccharomyces cerevisiae" measurement=0.533
macromolecule_sequence=RKIERKHIKEFS test_system="Saccharomyces cerevisiae" measurement=0.664
macromolecule_sequence=VVVGWWALGRFL test_system="Saccharomyces cerevisiae" measurement=0.629
macromolecule_sequence=RQILYYRERFIP test_system="Saccharomyces cerevisiae" measurement=0.313
macromolecule_sequence=KKIQKKTPAIDG test_system="Saccharomyces cerevisiae" measurement=0.671
macromolecule_sequence=PPGYPLCLPLGF test_system="Saccharomyces cerevisiae" measurement=0.702
macromolecule_sequence=EGWPGGRGGAGL test_system="Saccharomyces cerevisiae" measurement=0.614
macromolecule_sequence=SSASLIPPPPVP test_system="Saccharomyces cerevisiae" measurement=0.693
macromolecule_sequence=CLGLFPSLLRLS test_system="Saccharomyces cerevisiae" measurement=0.325
macromolecule_sequence=PPPPPPPFRPPT test_system="Saccharomyces cerevisiae" measurement=0.651
macromolecule_sequence=PLAPYPPLPPPP test_system="Saccharomyces cerevisiae" measurement=0.69
macromolecule_sequence=LPFFFPPFFITR test_system="Saccharomyces cerevisiae" measurement=0.532
macromolecule_sequence=FLGVFFYFLLCV test_system="Saccharomyces cerevisiae" measurement=0.379
macromolecule_sequence=EGGGGVEGAAWG test_system="Saccharomyces cerevisiae" measurement=0.694
macromolecule_sequence=PLPPFPPHNLRA test_system="Saccharomyces cerevisiae" measurement=0.733
macromolecule_sequence=GVVGWWWVRGMG test_system="Saccharomyces cerevisiae" measurement=0.756
macromolecule_sequence=YRSVLGREEQLI test_system="Saccharomyces cerevisiae" measurement=0.7
macromolecule_sequence=PPPPPLRVPPPP test_system="Saccharomyces cerevisiae" measurement=0.675
macromolecule_sequence=PPPSPSSPPLSL test_system="Saccharomyces cerevisiae" measurement=0.717
macromolecule_sequence=CVDAFLVRLVFM test_system="Saccharomyces cerevisiae" measurement=0.568
macromolecule_sequence=RLCFAPRVLPTH test_system="Saccharomyces cerevisiae" measurement=0.604
macromolecule_sequence=GFFCFLYFVVMF test_system="Saccharomyces cerevisiae" measurement=0.226
macromolecule_sequence=GPPPPPPPRPPP test_system="Saccharomyces cerevisiae" measurement=0.634
macromolecule_sequence=LPVFVIGEFLLV test_system="Saccharomyces cerevisiae" measurement=0.49
macromolecule_sequence=FLVVSSVGFPLL test_system="Saccharomyces cerevisiae" measurement=0.467
macromolecule_sequence=VVSITYCGQGGG test_system="Saccharomyces cerevisiae" measurement=0.694
macromolecule_sequence=SGRPEGERAPEQ test_system="Saccharomyces cerevisiae" measurement=0.728
macromolecule_sequence=VVVSRARSSRSS test_system="Saccharomyces cerevisiae" measurement=0.633
macromolecule_sequence=VVGRGGGFVGPG test_system="Saccharomyces cerevisiae" measurement=0.616
macromolecule_sequence=SPVRRGRCRLSG test_system="Saccharomyces cerevisiae" measurement=0.728
macromolecule_sequence=PFPALQHAISRE test_system="Saccharomyces cerevisiae" measurement=0.699
macromolecule_sequence=GGHAAMGRRGRE test_system="Saccharomyces cerevisiae" measurement=0.73
macromolecule_sequence=GSVLPPPSSPPL test_system="Saccharomyces cerevisiae" measurement=0.704
macromolecule_sequence=PPFTPLSCLPPP test_system="Saccharomyces cerevisiae" measurement=0.708
macromolecule_sequence=GLGLVSWEAGGG test_system="Saccharomyces cerevisiae" measurement=0.702
macromolecule_sequence=RITTVPNSNPGN test_system="Saccharomyces cerevisiae" measurement=0.689
macromolecule_sequence=PPRRSDSQQFSA test_system="Saccharomyces cerevisiae" measurement=0.676
macromolecule_sequence=GVFVVEWSGGEG test_system="Saccharomyces cerevisiae" measurement=0.586
macromolecule_sequence=PSHPPPPATPCP test_system="Saccharomyces cerevisiae" measurement=0.711
macromolecule_sequence=SSLSFAPAPPFV test_system="Saccharomyces cerevisiae" measurement=0.698
macromolecule_sequence=FLSRLGLVGWWG test_system="Saccharomyces cerevisiae" measurement=0.643
macromolecule_sequence=DRVGGCESRAGR test_system="Saccharomyces cerevisiae" measurement=0.651
macromolecule_sequence=EIGWTEGGECVG test_system="Saccharomyces cerevisiae" measurement=0.632
macromolecule_sequence=LYRILQAPRSSP test_system="Saccharomyces cerevisiae" measurement=0.703
macromolecule_sequence=FPLPLCHSPAPP test_system="Saccharomyces cerevisiae" measurement=0.606
macromolecule_sequence=QPPLPPPLPGSP test_system="Saccharomyces cerevisiae" measurement=0.741
macromolecule_sequence=TNSQTKKKINKI test_system="Saccharomyces cerevisiae" measurement=0.661
macromolecule_sequence=LTSSYSLCFLAP test_system="Saccharomyces cerevisiae" measurement=0.696
macromolecule_sequence=CLLLVLCKFGLL test_system="Saccharomyces cerevisiae" measurement=0.556
macromolecule_sequence=AASPRDPQKDHA test_system="Saccharomyces cerevisiae" measurement=0.711
macromolecule_sequence=LRSPSDSLALPL test_system="Saccharomyces cerevisiae" measurement=0.666
macromolecule_sequence=RKRSRQLNRQLK test_system="Saccharomyces cerevisiae" measurement=0.603
macromolecule_sequence=TLLTIALLTGNL test_system="Saccharomyces cerevisiae" measurement=0.606
macromolecule_sequence=EKVWTLTGLSHL test_system="Saccharomyces cerevisiae" measurement=0.722
macromolecule_sequence=VWSWGDGGGAVV test_system="Saccharomyces cerevisiae" measurement=0.734
macromolecule_sequence=SSVNRPTSWTKA test_system="Saccharomyces cerevisiae" measurement=0.739
macromolecule_sequence=VGSGGGAPRVGR test_system="Saccharomyces cerevisiae" measurement=0.647
macromolecule_sequence=PPTPPSLPPLSP test_system="Saccharomyces cerevisiae" measurement=0.665
macromolecule_sequence=VCVDLFGLRASA test_system="Saccharomyces cerevisiae" measurement=0.631
macromolecule_sequence=ALLTWIFTCIHI test_system="Saccharomyces cerevisiae" measurement=0.571
macromolecule_sequence=LFAHPPSPPSAP test_system="Saccharomyces cerevisiae" measurement=0.654
macromolecule_sequence=SRCRASMPPLRA test_system="Saccharomyces cerevisiae" measurement=0.684
macromolecule_sequence=AQPGRLHLSCES test_system="Saccharomyces cerevisiae" measurement=0.688
macromolecule_sequence=LGSGSTQGWAGG test_system="Saccharomyces cerevisiae" measurement=0.667
macromolecule_sequence=PFFSSLKYRRDH test_system="Saccharomyces cerevisiae" measurement=0.237
